Values from the supplement of paper PMC10307832

# Tested on: UMC-11
# Assay notes: relative viability (nuclei count vs DMSO), 5 days (fraction); higher = more cells survive
# Experimental conditions: first compound 0.08 µM

Molecule	relative viability
Cc1cnc(-c2cnc(NCCNc3ccc(C#N)cn3)nc2-c2ccc(Cl)cc2Cl)[nH]1 + CC(=O)c1c(C)c2cnc(Nc3ccc(N4CCNCC4)cn3)nc2n(C2CCCC2)c1=O [Palbociclib] (partner 0.5 µM)	0.354
Cc1cnc(-c2cnc(NCCNc3ccc(C#N)cn3)nc2-c2ccc(Cl)cc2Cl)[nH]1 + CS(=O)(=O)CCNCc1ccc(-c2ccc3ncnc(Nc4ccc(OCc5cccc(F)c5)c(Cl)c4)c3c2)o1 [Lapatinib] (partner 2 µM)	1.22
Cc1cnc(-c2cnc(NCCNc3ccc(C#N)cn3)nc2-c2ccc(Cl)cc2Cl)[nH]1 + Nc1ncn([C@H]2C[C@H](O)[C@@H](CO)O2)c(=O)n1 [Decitabine] (partner 2 µM)	0.727

---

# Tested on: NCI-H1437
# Assay notes: relative viability (nuclei count vs DMSO), 5 days (fraction); higher = more cells survive
# Experimental conditions: first compound 0.5 µM

Compound	relative viability
Nc1ccn([C@@H]2O[C@H](CO)[C@@H](O)[C@@H]2O)c(=O)n1 [Cytarabine] + O=C(CCCCCCC(=O)Nc1ccccc1)NO [Vorinostat] (partner 1 µM)	0.303
Nc1ccn([C@@H]2O[C@H](CO)[C@@H](O)[C@@H]2O)c(=O)n1 [Cytarabine] + COc1cccc2cc(-c3nc([C@H]4CC[C@H](C(=O)O)CC4)n4ncnc(N)c34)[nH]c12 [OSI-027] (partner 0.5 µM)	0.211
COc1cc2nccc(Oc3ccc(NC(=O)Nc4cc(C)on4)c(Cl)c3)c2cc1OC [Tivozanib] + CS(=O)(=O)N1CCN(Cc2cc3nc(-c4cccc5[nH]ncc45)nc(N4CCOCC4)c3s2)CC1 [Pictilisib] (partner 1 µM)	0.52

---

Known relative viability of a selection of compounds
# Tested on: SK-LU-1
# Assay notes: relative viability (nuclei count vs DMSO), 5 days (fraction); higher = more cells survive
# Experimental conditions: first compound 0.253 µM
Measurement kind: relative viability

Compound	Measurement kind	Reported
Cc1cnc(-c2cnc(NCCNc3ccc(C#N)cn3)nc2-c2ccc(Cl)cc2Cl)[nH]1 + CC1(C)CCC(c2ccc(Cl)cc2)=C(CN2CCN(c3ccc(C(=O)NS(=O)(=O)c4ccc(N[C@H](CCN5CCOCC5)CSc5ccccc5)c(S(=O)(=O)C(F)(F)F)c4)cc3)CC2)C1 [Navitoclax] (partner 0.5 µM)	relative viability	0.807
Cc1cnc(-c2cnc(NCCNc3ccc(C#N)cn3)nc2-c2ccc(Cl)cc2Cl)[nH]1 + CCNC(=O)c1noc(-c2cc(C(C)C)c(O)cc2O)c1-c1ccc(CN2CCOCC2)cc1 [Luminespib] (partner 0.01 µM)	relative viability	0.238
O=c1[nH]c2ccccc2n1C1CCN(CCCC(c2ccc(F)cc2)c2ccc(F)cc2)CC1 [Pimozide] + O=C(CCCCCCC(=O)Nc1ccccc1)NO [Vorinostat] (partner 1 µM)	relative viability	0.72

---

Measured relative viability of individual entries
# Test system: H3255
# Assay notes: relative viability (nuclei count vs DMSO), 5 days (fraction); higher = more cells survive
# Experimental conditions: first compound 1.265 µM

Compound	relative viability
Cc1sc2c(c1C)C(c1ccc(Cl)cc1)=N[C@@H](CC(=O)OC(C)(C)C)c1nnc(C)n1-2 [JQ1] + Cc1nc(NC(=O)N2CCC[C@H]2C(N)=O)sc1-c1ccnc(C(C)(C)C(F)(F)F)c1 [Alpelisib] (partner 2 µM)	0.34
Cc1sc2c(c1C)C(c1ccc(Cl)cc1)=N[C@@H](CC(=O)OC(C)(C)C)c1nnc(C)n1-2 [JQ1] + CS(=O)(=O)N1CCN(Cc2cc3nc(-c4cccc5[nH]ncc45)nc(N4CCOCC4)c3s2)CC1 [Pictilisib] (partner 1 µM)	0.381
